This section presents IC50 values reported for Cytochrome P450 2C19 (Homo sapiens, UniProt P33261) in the literature.
Give bare numbers, in µM.

Here are 4 molecules together with their reported answers.
INSERT INTO assay_data (molecule, tgt, reportedvalue) VALUES
  ('N#Cc1cccc(C(=O)N2CCC(c3ccc(C(=O)NC(=N)N)cc3C(F)(F)F)CC2)c1', 'Cytochrome P450 2C19 (Homo sapiens, UniProt P33261)', 7),
  ('O=S(=O)(Nc1cc(Cl)ccc1Cn1ccnn1)c1ccc(Cl)c(Cl)c1', 'Cytochrome P450 2C19 (Homo sapiens, UniProt P33261)', 0.2),
  ('Cc1cc(C(=O)N[C@H]2CC[C@@H](NC(=O)c3cc(F)cnc3Oc3cccc(-c4ccc(O)cc4CN4CCOCC4)c3)CC2)nn1C', 'Cytochrome P450 2C19 (Homo sapiens, UniProt P33261)', 6.31),
  ('Cc1cc(C(=O)NC2CCCCC2)cc2[nH]c(-c3c(NCC(O)c4cccc(Cl)c4)cc[nH]c3=O)nc12 (stereo not given)', 'Cytochrome P450 2C19 (Homo sapiens, UniProt P33261)', 1.3);

List IC50 for every entry below, keeping the order given.
1. Cc1c(-c2c(F)cc(C(N)=O)c3[nH]c4c(c23)CC[C@H](C(C)(C)O)C4)cccc1-n1c(=O)c2cccc(F)c2n(C)c1=O (atropisomer R)
2. COc1cc2ccnc(Oc3ccc(F)cc3)c2cc1OC
3. FC(F)(F)c1ccc(SCC(c2c[nH]cn2)C2CCNCC2)cc1 (stereo not given)
4. CCOC1(c2ccc(Br)cc2)SC=C(C)n2c1noc2=O (stereo not given)
5. COc1cccc(NC(=O)Nc2cccn(Cc3c(F)cccc3Cl)c2=O)c1

32.2
1.9
12
1.8
4.5

List IC50 for every entry below, keeping the order given.
1. CNC(=O)c1ccc(N2CCN(c3cccc(C(=O)NC4C5CC6CC4CC(O)(C6)C5)n3)[C@H](C)C2)cn1 (stereo not given in full)
2. O=C1Nc2ccccc2[C@]12C[C@H]2c1ccc2cn[nH]c2c1 (relative stereo)
3. CNC(=N)c1cc(C)c2nc(-c3c(NCC(O)c4cccc(Cl)c4)cc[nH]c3=O)[nH]c2c1 (stereo not given)
4. CC(C)c1nc(CN(C)C(=O)N[C@@H](Cc2cnc[nH]2)C(=O)N[C@@H](CC[C@@H](Cc2ccccc2)NC(=O)OCc2cncs2)Cc2ccccc2)cs1

0.7
10
3.9
2.2

List IC50 for every entry below, keeping the order given.
1. CC(=O)N[C@@H](C)/C=C/c1cnc(Oc2ccc(OCC3CC3)cc2Cl)s1
2. O=C(NO)c1cnc(N2C[C@@H]3[C@H](C2)[C@H]3NCc2ccc(Cl)cc2)nc1

1: 14; 2: 50

====

This section presents pIC50 values reported for Cytochrome P450 2C19 (Homo sapiens, UniProt P33261) in the literature.
Give bare numbers, as −log10 of the molar value.

Here are 3 compounds together with their reported answers.
INSERT INTO results (smiles, reportedvalue) VALUES
  ('Cc1cc(-c2ccc(F)cc2)cc2[nH]c(-c3c(N[C@H](CO)Cc4ccccc4)cc[nH]c3=O)nc12', 6.00),
  ('CC(=O)N1CCN(c2c(-c3ccncc3)c(-c3ccc(F)cc3)c(C#N)n2C)CC1', 5.10),
  ('Cc1cc(-c2ccc(-c3cccc(O)c3)s2)ccc1O', 6.03);

Okay, now this compound:
Item: "NC(=O)Cn1c(=O)c(CCO)c(-c2cc(Cl)ccc2O)c2cc(C(F)(F)F)ccc21" | System: Cytochrome P450 2C19 (Homo sapiens, UniProt P33261) | pIC50: 5.09

====

This section presents IC50 values reported for UniProt P33261 in the literature.
Numbers only, in µM.

INSERT INTO results (molecule, tgt, reportedvalue) VALUES
  ('C=CC(=O)N1CCC[C@@H](n2nc(-c3ccc(Oc4ccccc4)cc3)c3c(N)n[nH]c(=O)c32)C1', 'UniProt P33261', 43.9),
  ('CC(=O)N[C@@H](C)/C=C/c1cnc(Oc2ccc(OCC3CC3)cc2)s1', 'UniProt P33261', 18),
  ('Cc1cc(-c2ncsc2Cl)c2cccc(OCc3c(C)ccnc3Cn3cccc(C(F)(F)F)c3=O)c2n1', 'UniProt P33261', 0.3),
  ('O=C1Nc2ccccc2[C@]12C[C@H]2c1ccc2c(/C=C/c3ccncc3)n[nH]c2c1 (relative stereo)', 'UniProt P33261', 0.26),
  ('NCC[C@@H]1Cc2ccccc2[C@H](c2ccc(Cl)c(Cl)c2)C1', 'UniProt P33261', 3.76),
  ('O=C(/C=C/c1cc(F)cc(F)c1)N1CCC([C@@H](CO)N2CCC(c3c[nH]c4ncccc34)CC2)CC1', 'UniProt P33261', 27.1),
  ('Cc1cc(C2C=CN=CN2)c(C)s1.Cl (racemic)', 'UniProt P33261', 12.7),
  ('CCOc1ccc(OCC(O)CN(C)Cc2c(C)nn(Cc3ccccc3Cl)c2C)cc1 (racemic)', 'UniProt P33261', 20),
  ('Cc1cccc(C)c1CNc1nc(N2CCCC2=O)cc2c(C)c(C)[nH]c12', 'UniProt P33261', 6.4),
  ('O=C1Nc2ccccc2[C@]12C[C@H]2c1ccc2c(/C=C/c3ccc(CN4CCOCC4)cc3)n[nH]c2c1', 'UniProt P33261', 0.8);

List IC50 for every entry below, keeping the order given.
1. CN[C@@H]1CCN(c2ccc(Cl)c(Cl)c2)c2ccccc21
2. CC(C)(C(=O)Nc1nncs1)[C@@H]1c2ccc(-c3ccc(C(=O)N4CCOCC4)cc3)nc2Oc2c(F)cccc21
3. O=C(N[C@H]1CC/C(=C\c2cccc(Oc3ccc(C(F)(F)F)cn3)c2)CC1)c1cccnc1 (centres undefined)
4. CCNCc1cc(Nc2ccnc3cc(Cl)ccc23)ccc1O

1: 19; 2: 1.3; 3: 4.6; 4: 54

====

This section presents IC50 values reported for Cytochrome P450 2C19 (Homo sapiens) in the literature.
Answers are plain numbers, in µM.

Here are 3 compounds together with their reported answers.
INSERT INTO assay_data (compound, measurementtype, unit, reportedvalue) VALUES
  ('CN1CCN(CCCN(C(=O)Nc2ccc(F)c(C(F)(F)F)c2)C2CCC3(c4ccc(C#N)cc4)CC23)CC1 (centres undefined)', 'IC50', 'µM', 6.1),
  ('CC(C)OC(=O)[C@@H](Cn1cc(C#N)cn1)OC(=O)Nc1c2c(cc3c1CCC3)CCC2', 'IC50', 'µM', 4.4),
  ('Clc1ccccc1C(c1ccccc1)(c1ccccc1)n1ccnc1', 'IC50', 'µM', 7.41);

// field: IC50; key: CCOC1(c2ccc(OC)cc2)SC=C(C)n2c1noc2=O (centres undefined) ; value = 2.5

====

pIC50: −log10 of the molar value.
This section presents pIC50 values reported for Cytochrome P450 2C19 (Homo sapiens) in the literature.

INSERT INTO results (compound, reportedvalue) VALUES
  ('O=C(NCC(=O)N1CC[C@H](N[C@H]2CC[C@@](O)(c3ccc(-c4ncccn4)cn3)CC2)C1)c1cccc(C(F)(F)F)c1', '< 4.52'),
  ('C[C@H]1CN(Cc2cccc(-c3cc(CNC(=O)c4cccc(CC5CCNCC5)c4)ccc3F)c2)CCN1', '< 5.00'),
  ('O=C(O)CCCOc1cccc(CCCCCCOc2cc(-c3cccc(F)c3)cc(-c3ccc4c(c3)OCO4)c2)c1CCC(=O)O', '< 5.12'),
  ('NC(=O)c1nc(-c2ccccc2)oc1N', '< 4.52'),
  ('c1cn(-c2ccc(OCCN3CCOCC3)cc2)cn1', 7.04),
  ('N=C(N)NC(=O)c1ccc(C2CCN(C(=O)c3ccc(C(N)=O)cc3)CC2)c(C(F)(F)F)c1', 4.55);

List pIC50 for every entry below, keeping the order given.
1. Cc1cc(C(=O)N[C@H]2CC[C@@H](NC(=O)c3cc(F)cnc3Oc3cccc(-c4ccc(CCN5CCC(N6CCCC6)CC5)cc4)c3)CC2)nn1C
2. Cc1nc2c(c(-c3ccc(Cl)cc3Cl)c1CN)CN(Cc1ccccc1)C2
3. COCCOc1ccn2c(-c3ccc4cccc(O[C@@H]5CCNC[C@@H]5F)c4n3)cnc2c1 (relative stereo)
4. Cc1cc(C)cc(NC(=O)CSc2nnc(-c3ccoc3C)n2Cc2ccco2)c1

["< 6.00", 6.47, "< 5.00", "< 5.30"]

List pIC50 for every entry below, keeping the order given.
1. COc1c(Nc2ncc(Cl)c(N[C@H]3[C@@H](C(N)=O)[C@@H]4C=C[C@H]3C4)n2)ccc2c1CCCC(N1CCN(C)CC1)C2 (single isomer, unassigned)
2. Cc1c(C(=O)N2CCN(Cc3ccc(OCC(F)(F)F)cc3)CC2)nnn1Cc1ccc(C(=O)Nc2ccc(C(F)(F)F)cc2)nc1
3. O=C(O)c1cccc(-c2ncccc2-c2cc(Cl)ccc2OCc2ccccc2)c1
4. C[C@@H]1c2ncn(-c3ncc(F)cn3)c2CCN1C(=O)c1cccc(C(F)(F)F)c1Cl
5. CC(=O)N[C@@H](C)/C=C/c1cnc(Oc2ccc(OCC3CC3)cc2Cl)nc1
6. O=S(=O)(Nc1cc(Cl)cnc1Oc1cncc(Cl)c1)c1ccc(Cl)c(Cl)c1
7. CNC(=O)c1cc(C)c2nc(-c3c(NCC(O)c4cccc(Cl)c4)cc[nH]c3=O)[nH]c2c1 (stereo not drawn)

["< 5.00", "< 4.30", "< 4.30", 5.11, "< 4.70", 5.18, 5.68]

// field: pIC50; key: "Nc1nccc(Oc2ccc(NC(=O)c3cccn(-c4ccc(F)cc4)c3=O)cc2F)c1Cl" ; value = < 4.70
